Assay: folding stability dG unfold from trypsin proteolysis; higher = more stable
Exercise: state measured folding stability dG unfold for each of the sequences provided.
Form entry: enter the amount, then its unit.

Prompt line: Look up folding stability dG unfold: SAGGSMISTLSESVDPAKNTTYYLNLYTEGSRAYGALVTVTTDPATGTKTITTKFPALPEVTTTETVASAGG [r13_615_JUSTAS]
Response line: 0.511 kcal/mol

Prompt line: Looking for the measured folding stability dG unfold of SAGGSAGGMVVERKDMDPEEAVEDTKKRIKEETGWEVTEITVTEFPEEPRLVVTIKVKKPPEKSSAGGSAGG [r6_462_JUSTAS] , can you help?
Response line: -0.287 kcal/mol

Prompt line: Look up folding stability dG unfold for this sequence: SAGDDLKIKKVEIQINPEHGYISVTFRIDGYEVQIMYDVDPKNGPITMDIYYPGKPIGEFTIPLNDIKISAG [r5_415_TrROS]
Response line: 1.78 kcal/mol

Prompt line: Query: folding stability dG unfold; subject: SAGGMTPEELEAAARAAAAALRAELEAGDPDVEVDLEVDPEKGTATFTVTDRATGRPRTLTVPFAELASAGG [r13_354_JUSTAS]
Response line: 0.871 kcal/mol

Prompt line: Field request: folding stability dG unfold | item: SAGGSAGGSKTITVRVKITLPNGETIEVEAEITVRPDGSITITLPDGSTITLPPGAKVEIEPVSAGGSAGGS [r20_227_TrROS_Hall]
Response line: 2.99 kcal/mol

Prompt line: I am curious: what folding stability dG unfold value has been reported for SAGMVVKVTVITEDEKPIEVYLPVKDPEKYPPEKVEEAAKEIAKKLEEEGIPVKKVSVEPIAPKPGLLSAGG [r19_334_TrMRF] ?
Response line: 0.544 kcal/mol

Prompt line: # query: folding stability dG unfold of entry SAGGSAGGSMFEEEEIEIERPDGTTIKVKVEILPDGTRVLTITDPKEGKTTTVTLSPNEEILLSAGGSAGGS [r20_45_JUSTAS]
Response line: 2.15 kcal/mol

Prompt line: Consider the sequence shown here: SAGGLEAKITEIDEDGYLRIEIVDPETGELIAEIRIKIELPPPPPVPETEEVLDEDGRKRTVTRLYDRSAGG [r13_9_TrROS_Hall] What is its recorded folding stability dG unfold?
Response line: 0.214 kcal/mol

Prompt line: // folding stability dG unfold lookup, key: SAGGHTIMFPVKSPEQARDEIRDFARDQGLPIEPEDITIEQHEFKDPENGKKYRFFEITIDVTLKPPSAGGS [r16_587_TrROS]
Response line: 0.0514 kcal/mol

Prompt line: Fill in the blank: the reported folding stability dG unfold of SAGGSMKEIVELGEVEFEEDSVALKVKFKVKLVFYDPETGEKVEEREEELEVYFGGDTLEFSPVEGSAGGSA [r2_271_TrMRF] is ____.
Response line: 1.49 kcal/mol

Prompt line: Param item = SAGGSAGGSAGNSVTILPIPETDKYLVVVSDNSGKFTVFDVDSSDLEDVVKALPSNYTVTSAGGSAGGSAGG [r11_569_TrMRF] ; retrieve measured folding stability dG unfold.
Response line: 0.881 kcal/mol

Prompt line: Fill in the blank: the reported folding stability dG unfold of SAGGMTITVKPPDGTVITYTSETLPEIIAKLDPNGTYTITIEVPKVDPSNGGARPIVKTYTVPKERISAGGS [r16_806_JUSTAS] is ____.
Response line: 0.865 kcal/mol

Prompt line: Fill blank: measured folding stability dG unfold of the sequence SAGGSAGGSAGGKKKKVKKKVTITIKLSAEEVAKLLKDLYPEKNIKIEENEDGSLSVTFTSAGGSAGGSAGG [r7_670_TrROS_Hall] is ____.
Response line: 2 kcal/mol

Prompt line: folding stability dG unfold for SMIKVGFNVTGLPEEAEAKAEELARELAEETGARVAGVELLEAVPHPDGGPETFNVLVTLEVPNPEAIEKSA [r9_302_TrMRF] ?
Response line: 0.542 kcal/mol
